# System: P. falciparum 3D7 growth, pLDH absorbance
# Assay Details: blood-stage malaria parasite growth potency – strain 3D7, dose response (AID 2305)
Please respond with reported IC50 for every item in the list.

Worked cases, IC50 given:
1. CCc1c(CCNCCCCCNCCc2ccc(OC)c(OC)c2CC)ccc(OC)c1OC    1110 nM
2. O=C(c1ccc(Cl)cc1)N1CCCC(C(=O)N(Cc2nnc(-c3ccccc3Cl)o2)C2CC2)C1 (stereo not given)    230 nM
3. Nc1cc(C=Cc2ccc([N+](=O)[O-])o2)nc2ccccc12    370 nM

Give me IC50 for each of these molecules, listed below.
1. CN(C)C(=O)CC(=O)NCc1cccc(Cl)c1
2. CN1CCN(CC(=O)Nc2cccc(-c3cccc(-c4nc5ccc(C(F)(F)F)cc5[nH]4)c3)c2)CC1

A.
1. 710 nM
2. 370 nM
